Data credit: patent US20260125400A1

Molecular target: TYK2 (Homo sapiens)
Construct: Degradation of TYK2 in cells was quantitatively measured using Meso Scale Discovery (MSD) technology; endogenous in cells; host or cells: OCI-LY10
Sequence (P29597 whole entry): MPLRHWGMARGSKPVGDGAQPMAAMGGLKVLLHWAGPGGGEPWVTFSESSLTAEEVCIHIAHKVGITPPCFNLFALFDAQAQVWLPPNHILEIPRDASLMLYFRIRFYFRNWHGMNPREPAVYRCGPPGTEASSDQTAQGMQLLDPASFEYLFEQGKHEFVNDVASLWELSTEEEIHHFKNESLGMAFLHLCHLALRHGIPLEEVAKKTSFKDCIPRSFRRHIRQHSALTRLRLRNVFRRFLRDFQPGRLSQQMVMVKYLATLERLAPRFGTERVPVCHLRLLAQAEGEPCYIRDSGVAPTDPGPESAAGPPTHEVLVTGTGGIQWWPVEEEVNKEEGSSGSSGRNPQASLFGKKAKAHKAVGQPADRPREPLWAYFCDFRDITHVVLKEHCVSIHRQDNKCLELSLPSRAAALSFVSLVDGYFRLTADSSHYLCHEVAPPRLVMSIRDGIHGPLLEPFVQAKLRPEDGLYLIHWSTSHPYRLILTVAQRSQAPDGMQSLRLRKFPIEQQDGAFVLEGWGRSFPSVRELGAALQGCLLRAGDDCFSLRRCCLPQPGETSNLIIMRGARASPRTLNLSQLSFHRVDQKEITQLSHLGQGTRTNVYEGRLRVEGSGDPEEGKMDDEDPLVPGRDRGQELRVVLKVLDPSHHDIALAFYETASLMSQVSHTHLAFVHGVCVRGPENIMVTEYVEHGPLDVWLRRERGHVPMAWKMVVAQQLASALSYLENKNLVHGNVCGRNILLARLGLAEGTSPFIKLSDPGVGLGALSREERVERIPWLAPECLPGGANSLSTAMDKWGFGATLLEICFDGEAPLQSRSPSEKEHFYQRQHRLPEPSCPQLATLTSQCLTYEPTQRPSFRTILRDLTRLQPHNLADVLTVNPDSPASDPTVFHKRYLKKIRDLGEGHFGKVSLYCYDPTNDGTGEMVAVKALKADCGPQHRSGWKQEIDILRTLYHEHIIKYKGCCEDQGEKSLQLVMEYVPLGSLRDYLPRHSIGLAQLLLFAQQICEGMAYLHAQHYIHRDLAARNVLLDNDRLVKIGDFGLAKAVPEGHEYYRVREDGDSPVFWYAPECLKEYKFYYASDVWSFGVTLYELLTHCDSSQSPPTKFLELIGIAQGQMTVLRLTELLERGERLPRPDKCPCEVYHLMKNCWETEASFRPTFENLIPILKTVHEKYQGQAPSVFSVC
Assay: TYK2 MSD degradation in OCI-LY10 cells
Assay type: cell-based
Conditions: TYK2 degradation in OCI-LY10 cells, 4 to 24 hours incubation
quantity_name: TYK2 MSD OCI-LY10 Dmax %

Consider the worked cases shown below.
# molecule, TYK2 MSD OCI-LY10 Dmax %
rows = [
    ("CNc1cc(N2CCc3c(-c4ccc(CN5CCC(N6CC7(CCN(c8cccc9c8n(C)c(=O)n9C8CCC(=O)NC8=O)CC7)C6)C(F)(F)C5)cn4)cccc32)nn2c(C(=O)N[C@@H]3C[C@@H]3F)cnc12 (some centres unmarked)", "B (B (90 to >75%))"),
    ("CNc1cc(N2CCc3c(-c4ccc(OC5CC6(CCN(C(=O)c7cc(C)c(Cl)c(N8CCC(=O)NC8=O)c7)CC6)C5)cn4)cccc32)nn2c(C(=O)N[C@@H]3C[C@@H]3F)cnc12", "B (B (90 to >75%))"),
    ("CNc1cc(N2CCc3c(-c4ccc(CN5CC6(CCN(C(=O)c7ccc(Cl)c(N8CCC(=O)NC8=O)c7)C6)C5)cn4)cccc32)nn2c(C(=O)NC3CC3F)cnc12 (centres unmarked)", "C (C (75 to 50%))"),
    ("CNc1cc(N2CCc3c(-c4ncc(CN5CC6(CCN(C(=O)c7cc(F)c(C)c(N8CCC(=O)NC8=O)c7)CC6(F)F)C5)cc4F)cccc32)nn2c(C(=O)N[C@@H]3C[C@@H]3F)cnc12", "A (A (>90%))"),
    ("CNc1cc(N2CCc3c(C#CCN4CCC(N5CCN(C(=O)c6ccc(Cl)c(N7CCC(=O)NC7=O)c6)CC5)C(F)(F)C4)cccc32)nn2c(C(=O)NC3CC3F)cnc12 (centres unmarked)", "A (A (>90%))"),
]

-- ask // TYK2 MSD OCI-LY10 Dmax % lookup, key: CNc1cc(N2CCc3c(CN4CCC(N5CCC(N6CCN(c7ccc8c(c7)n(C)c(=O)n8C7CCC(=O)NC7=O)CC6)CC5)C(F)(F)C4)cccc32)nn2c(C(=O)N[C@@H]3C[C@@H]3F)cnc12 (some centres unmarked)
-- reply B (B (90 to >75%))

-- ask // TYK2 MSD OCI-LY10 Dmax % lookup, key: CNc1cc(N2CCc3c(-c4ccc(CC5CC6(CCN(C(c7ccc(Cl)c(N8CCC(=O)NC8=O)c7)C(F)(F)F)CC6)C5)cn4)cccc32)nn2c(C(=O)N[C@@H]3C[C@@H]3F)cnc12 (some centres unmarked)
-- reply D (D (<50%))

-- ask // TYK2 MSD OCI-LY10 Dmax % lookup, key: CNc1cc(N2CCc3c2cccc3C23CC(CN4CCN(C5CCN(C(=O)c6ccc(Cl)c(N7CCC(=O)NC7=O)c6)CC5)CC4)(C2)C3)nn2c(C(=O)N[C@@H]3C[C@@H]3F)cnc12
-- reply A (A (>90%))

-- ask // TYK2 MSD OCI-LY10 Dmax % lookup, key: CNc1cc(N2CCc3c(CN4CCC(N5CCC(Oc6ccc(Cl)c(N7CCC(=O)NC7=O)c6)CC5)C(F)(F)C4)cccc32)nn2c(C(=O)N[C@@H]3C[C@@H]3F)cnc12 (some centres unmarked)
-- reply D (D (<50%))

-- ask // TYK2 MSD OCI-LY10 Dmax % lookup, key: CNc1cc(N2CCc3c(-c4ccc(CN5CCC6(CCN(C(=O)c7ccc(Cl)c(N8CCC(=O)NC8=O)c7)CC6)C(F)(F)C5)cn4)cccc32)nn2c(C(=O)NC3CCC3)cnc12
-- reply B (B (90 to >75%))

-- ask // TYK2 MSD OCI-LY10 Dmax % lookup, key: CNc1cc(N2CCc3c(-c4cc(CN5CCN(c6ccc7c(c6)n(C)c(=O)n7C6CCC(=O)NC6=O)CC5)ccn4)cccc32)nn2c(C(=O)NC3CC3)cnc12 (centres unmarked)
-- reply B (B (90 to >75%))

-- ask // TYK2 MSD OCI-LY10 Dmax % lookup, key: CNc1cc(N2CCc3c(-c4ccc(CN5CCC6(CCC(Oc7ccc(Cl)c(N8CCC(=O)NC8=O)c7)CC6)CC5)cn4)cccc32)nn2c(C(=O)N[C@@H]3C[C@@H]3F)cnc12
-- reply D (D (<50%))
